experiment: Half life in fasted BALB/c mouse at 5 mg/kg, iv administered upto 600 mins by HPLC-MS/MS analysis; format: ADME, organism-based; conditions: BALB/c, in vivo

# Compound Smiles, half-life (min)
rows = [
    ("CC(C)N(C[C@H]1C[C@@H](c2ccc3c(N)ncnn23)[C@H](O)[C@@H]1O)[C@H]1C[C@@H](CCc2nc3cc(C(C)(C)C)ccc3[nH]2)C1", 57.2),
]

---

assay: AUC (0 to infinity) in fasted BALB/c mouse at 5 mg/kg, iv administered upto 600 mins by HPLC-MS/MS analysis; assay type: ADME, organism-based; design: dose 5 mg/kg, time < 600 min, route iv; details: in vivo
Below, each entry is listed with its recorded AUC(0-inf).
Reported Property: AUC(0-inf) (ng·h/mL)

# Compound, Recorded Value
rows = [
    ("CC(C)N(C[C@H]1C[C@@H](c2ccc3c(N)ncnn23)[C@H](O)[C@@H]1O)[C@H]1C[C@@H](CCc2nc3cc(C(C)(C)C)ccc3[nH]2)C1", 5850),
    ("CC(C)N(C[C@H]1O[C@@H](n2cnc3c(N)ncnc32)[C@H](O)[C@@H]1O)[C@H]1C[C@@H](CCc2nc3cc(C(C)(C)C)ccc3[nH]2)C1 [PINOMETOSTAT]", 4870),
]

---

Each record here notes measured AUC(0-inf).
test: AUC (0 to infinity) in fasted BALB/c mouse at 20 mg/kg, iv administered upto 600 mins by HPLC-MS/MS analysis; type: ADME, organism-based; set-up: dose 20 mg/kg, time < 600 min, route iv; conditions: in vivo
Reported Property: AUC(0-inf) (µg·h/mL)

# Molecule, Unit Tag, Recorded Value
records = [
    ("CC(C)NC[C@H]1C[C@@H](c2ccc3c(N)ncnn23)[C@H](O)[C@@H]1O", "µg·h/mL", 14.2),
    ("CC(C)N(C[C@H]1C[C@@H](c2ccc3c(N)ncnn23)[C@H](O)[C@@H]1O)[C@H]1C[C@@H](CCc2nc3cc(C(C)(C)C)ccc3[nH]2)C1", "µg·h/mL", 35),
    ("CN(CCCNC(=O)Nc1ccc(C(C)(C)C)cc1)C[C@H]1C[C@@H](c2ccc3c(N)ncnn23)[C@H](O)[C@@H]1O (stereo in doubt; (-)-25)", "µg·h/mL", 3.08),
    ("CC(C)NC[C@@H]1C[C@H](c2ccc3c(N)ncnn23)[C@@H](O)[C@H]1O", "µg·h/mL", 7.25),
]

---

// values below are IC50; system is Histone-lysine N-methyltransferase, H3 lysine-79 specific (Homo sapiens)
Sequence (Q8TEK3 whole entry): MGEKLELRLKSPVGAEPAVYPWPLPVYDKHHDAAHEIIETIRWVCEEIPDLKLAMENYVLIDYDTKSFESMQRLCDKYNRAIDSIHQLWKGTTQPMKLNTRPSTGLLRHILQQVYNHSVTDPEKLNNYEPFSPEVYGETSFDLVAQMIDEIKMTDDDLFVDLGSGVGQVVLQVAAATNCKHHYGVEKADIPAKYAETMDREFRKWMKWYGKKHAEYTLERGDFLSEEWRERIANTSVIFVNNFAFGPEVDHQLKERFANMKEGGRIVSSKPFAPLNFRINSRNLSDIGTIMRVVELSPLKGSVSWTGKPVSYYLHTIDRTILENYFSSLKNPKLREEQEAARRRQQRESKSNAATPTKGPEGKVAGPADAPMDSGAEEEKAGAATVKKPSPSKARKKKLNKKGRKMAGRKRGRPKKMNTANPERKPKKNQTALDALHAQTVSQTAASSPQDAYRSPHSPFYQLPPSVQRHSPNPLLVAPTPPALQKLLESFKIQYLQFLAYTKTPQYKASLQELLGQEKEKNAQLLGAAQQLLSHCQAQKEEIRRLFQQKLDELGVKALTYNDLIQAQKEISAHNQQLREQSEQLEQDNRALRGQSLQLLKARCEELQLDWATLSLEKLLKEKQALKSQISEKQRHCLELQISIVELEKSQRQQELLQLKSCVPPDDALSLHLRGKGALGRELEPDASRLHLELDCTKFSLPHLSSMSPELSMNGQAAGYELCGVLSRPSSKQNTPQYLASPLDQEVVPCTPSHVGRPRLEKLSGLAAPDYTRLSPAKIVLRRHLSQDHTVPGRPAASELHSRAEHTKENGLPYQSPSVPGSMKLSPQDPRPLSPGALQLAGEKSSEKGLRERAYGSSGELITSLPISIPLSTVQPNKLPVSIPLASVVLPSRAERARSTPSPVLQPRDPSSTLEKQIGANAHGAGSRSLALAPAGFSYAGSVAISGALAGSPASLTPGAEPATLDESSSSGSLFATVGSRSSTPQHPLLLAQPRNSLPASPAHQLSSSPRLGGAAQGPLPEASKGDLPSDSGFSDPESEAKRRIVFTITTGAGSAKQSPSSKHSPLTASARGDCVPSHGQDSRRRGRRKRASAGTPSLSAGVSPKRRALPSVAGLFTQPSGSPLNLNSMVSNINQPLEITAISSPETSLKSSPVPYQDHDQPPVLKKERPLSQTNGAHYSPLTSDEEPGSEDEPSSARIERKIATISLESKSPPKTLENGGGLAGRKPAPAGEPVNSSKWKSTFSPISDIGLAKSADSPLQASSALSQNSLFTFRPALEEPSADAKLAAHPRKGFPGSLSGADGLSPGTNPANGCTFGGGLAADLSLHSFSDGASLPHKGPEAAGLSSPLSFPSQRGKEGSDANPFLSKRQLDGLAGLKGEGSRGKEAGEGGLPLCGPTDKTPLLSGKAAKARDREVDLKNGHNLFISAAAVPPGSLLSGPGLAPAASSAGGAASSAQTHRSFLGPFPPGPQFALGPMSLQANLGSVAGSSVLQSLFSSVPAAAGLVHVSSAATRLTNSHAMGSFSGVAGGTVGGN

# Compound, Measured On, IC50
rows = [
    ("CC(C)N(C[C@H]1C[C@@H](c2ccc3c(N)ncnn23)[C@H](O)[C@@H]1O)[C@H]1C[C@@H](CCc2nc3cc(C(C)(C)C)ccc3[nH]2)C1", "Histone-lysine N-methyltransferase, H3 lysine-79 specific (Homo sapiens)", "2.1 nM"),
    ("Nc1ncnn2c([C@@H]3C[C@H](CO)[C@@H](O)[C@H]3O)ccc12", "Histone-lysine N-methyltransferase, H3 lysine-79 specific (Homo sapiens)", "> 10000 nM"),
    ("CC(C)N(CCCNC(=O)NC12CC3CC(CC(C3)C1)C2)C[C@H]1C[C@@H](c2ccc3c(N)ncnn23)[C@H](O)[C@@H]1O", "Histone-lysine N-methyltransferase, H3 lysine-79 specific (Homo sapiens)", "> 10000 nM"),
    ("CC(C)N(CCCNC(=O)Nc1ccc(C(C)(C)C)cc1)C[C@H]1C[C@@H](c2ccc3c(N)ncnn23)[C@H](O)[C@@H]1O", "Histone-lysine N-methyltransferase, H3 lysine-79 specific (Homo sapiens)", "292 nM"),
    ("CN(CCCNC(=O)Nc1ccc(C(C)(C)C)cc1)C[C@H]1C[C@@H](c2cnn3c(N)ccnc23)[C@H](O)[C@@H]1O", "Histone-lysine N-methyltransferase, H3 lysine-79 specific (Homo sapiens)", "> 10000 nM"),
    ("CN(CCCNC(=O)Nc1ccc(C(C)(C)C)cc1)C[C@H]1C[C@@H](c2ccc3c(N)ncnn23)[C@H](O)[C@@H]1O (stereo in doubt; (+)-25)", "Histone-lysine N-methyltransferase, H3 lysine-79 specific (Homo sapiens)", "7410 nM"),
    ("CC(C)N(C[C@H]1C[C@@H](c2ccc3c(N)ncnn23)[C@H](O)[C@@H]1O)[C@H]1C[C@H](CCc2nc3cc(C(C)(C)C)ccc3[nH]2)C1 (racemic)", "Histone-lysine N-methyltransferase, H3 lysine-79 specific (Homo sapiens)", "13.8 nM"),
    ("CN(CCCNC(=O)Nc1ccc(C(C)(C)C)cc1)C[C@H]1C[C@@H](c2ccc3c(N)ncnn23)[C@H](O)[C@@H]1O (stereo in doubt; (-)-25)", "Histone-lysine N-methyltransferase, H3 lysine-79 specific (Homo sapiens)", "19 nM"),
    ("CC(C)N(C[C@@H]1C[C@H](c2ccc3c(N)ncnn23)[C@@H](O)[C@H]1O)[C@H]1C[C@@H](CCc2nc3cc(C(C)(C)C)ccc3[nH]2)C1", "Histone-lysine N-methyltransferase, H3 lysine-79 specific (Homo sapiens)", "80 nM"),
]

---

assay: Tmax in fasted BALB/c mouse at 20 mg/kg, po administered upto 600 mins by HPLC-MS/MS analysis; assay type: ADME, organism-based; settings: in vivo
Reported Tmax values are given for each entry in this list.

# Compound, Tmax / h
measured = [
    ("CC(C)N(C[C@H]1O[C@@H](n2cnc3c(N)ncnc32)[C@H](O)[C@@H]1O)[C@H]1C[C@@H](CCc2nc3cc(C(C)(C)C)ccc3[nH]2)C1", 0.0833),
    ("CC(C)NC[C@H]1C[C@@H](c2ccc3c(N)ncnn23)[C@H](O)[C@@H]1O", 2),
    ("CN(CCCNC(=O)Nc1ccc(C(C)(C)C)cc1)C[C@H]1C[C@@H](c2ccc3c(N)ncnn23)[C@H](O)[C@@H]1O (stereo in doubt; (-)-25)", 0.0833),
    ("CC(C)NC[C@@H]1C[C@H](c2ccc3c(N)ncnn23)[C@@H](O)[C@H]1O", 2),
]

---

test: Clearance in fasted BALB/c mouse at 20 mg/kg, iv administered upto 600 mins by HPLC-MS/MS analysis; format: ADME, organism-based; settings: in vivo

# Compound, clearance [mL/min/kg]
rows = [
    ("CC(C)NC[C@@H]1C[C@H](c2ccc3c(N)ncnn23)[C@@H](O)[C@H]1O", 46),
    ("CN(CCCNC(=O)Nc1ccc(C(C)(C)C)cc1)C[C@H]1C[C@@H](c2ccc3c(N)ncnn23)[C@H](O)[C@@H]1O (stereo in doubt; (-)-25)", 108),
    ("CC(C)NC[C@H]1C[C@@H](c2ccc3c(N)ncnn23)[C@H](O)[C@@H]1O", 23.3),
    ("CC(C)N(C[C@H]1C[C@@H](c2ccc3c(N)ncnn23)[C@H](O)[C@@H]1O)[C@H]1C[C@@H](CCc2nc3cc(C(C)(C)C)ccc3[nH]2)C1", 9.54),
]

These entries and their values trace back to ChEMBL document CHEMBL5154806.
